So I've got a bunch of molecules here, and I need their log10 TGI values.
Test system: MDA-N
method.notes: NCI tumour cell line growth inhibition, 48 h
The base-10 logarithm of TGI, taken with TGI in µM, is what appears here.

Problem: Which log10 TGI is reported for this molecule? COc1cc([C@@H]2c3cc4c(cc3[C@@H](OC3OC5COC(C)OC5C(O)C3O)[C@H]3COC(=O)[C@H]23)OCO4)cc(OC)c1O (some centres not stated)
Result: 0.64

Problem: Query CC[C@@]1(O)C(=O)OCc2c1cc1n(c2=O)Cc2c-1nc1ccc(N)cc1c2CC[Si](C)(C)C next
Result: 0.21

Problem: Query CCc1nnc2sc(-c3ccc(-c4ccccc4[N+](=O)[O-])o3)nn12 next
Result: 1.66

Problem: Query N#CC1=C(N)OC2=C(CCCc3ccc([N+](=O)[O-])cc32)C1c1ccc(Cl)cc1 (configuration not stated) next
Result: 1.60

Problem: Query COC(=O)c1sc2c(c1C(=O)OC)C(=Nc1ccc(OC)cc1)SC2=Nc1ccc(OC)cc1 next
Result: 0.40

Problem: Query NS(=O)(=O)c1ccc(Nc2c3ccccc3nc3c(C(=O)NC(CO)(CO)CO)cccc23)cc1 next
Result: -0.06

Problem: Query O=C1c2cccc3cc([N+](=O)[O-])cc(c23)C(=O)N1c1ccc(OCCN2CCCC2)cc1 next
Result: 1.90

Problem: Query COc1ccc2c(Cl)cc(NC(=S)Nc3ccccc3)nc2c1 next
Result: 1.51

Problem: Query C1CCC(CC2CCC(NC3=NCCO3)CC2)CC1 (configuration not stated) next
Result: 1.56
